Source: patent US20220251215A1

molecular target: T1, HLA-A2 on T2 cells pulsed with NY-ESO-1:157-165, wt peptide (C165) (human); assay: flow cytometry, 10 ug/ml, pulsed T2 cells
T1 construct: also called T2 Pulsed NY-ESO-1_157-165
The entries below come with measured ratio of MFI, pulsed to unpulsed values attached.
In your response, the unit should come after the numeric value.

// solved cases for ratio of MFI, pulsed to unpulsed follow
binder: mAb28037P2 (antibody, human IgG4 S228P, kappa, V domains shown) VH: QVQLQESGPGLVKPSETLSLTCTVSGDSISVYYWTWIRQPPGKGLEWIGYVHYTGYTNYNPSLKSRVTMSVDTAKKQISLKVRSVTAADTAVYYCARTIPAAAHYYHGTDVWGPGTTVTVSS VL: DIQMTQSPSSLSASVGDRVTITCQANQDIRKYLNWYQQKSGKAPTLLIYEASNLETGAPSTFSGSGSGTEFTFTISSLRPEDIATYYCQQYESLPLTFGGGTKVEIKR
measurementType: ratio of MFI, pulsed to unpulsed
observedResult: 137 ratio
//
binder: mAb24958N (antibody, human IgG4 S228P, kappa, V domains shown) VH: QVQLQESGPGLVKPSQTLSLTCTVSGGSIISDGYYWSWIRQHPGKGLEWIGYVDYSGNTYYNPSLKSRIIMSVDTSKNQFSLKLTSVTAADTAVYFCVREGPLRDAFEIWGQGTMVTVSS VL: DIQMTQSPSSLSASVGDRVTITCRTSQSISRYLNWYQQKPGKAPKLLIFAASSLQSGVPSRFSGSGSGADFTLTISSLQPEDFATYYCQQSYSTPPITFGQGTRLEIKR
measurementType: ratio of MFI, pulsed to unpulsed
observedResult: 98.6 ratio
//
binder: mAb28128P (antibody, human IgG4 S228P, kappa, V domains shown) VH: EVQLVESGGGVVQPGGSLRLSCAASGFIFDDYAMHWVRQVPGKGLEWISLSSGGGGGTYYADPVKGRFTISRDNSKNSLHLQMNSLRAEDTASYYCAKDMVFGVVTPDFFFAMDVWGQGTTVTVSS VL: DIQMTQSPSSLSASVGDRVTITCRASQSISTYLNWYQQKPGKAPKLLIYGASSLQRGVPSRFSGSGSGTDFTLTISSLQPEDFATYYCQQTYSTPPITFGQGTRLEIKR
measurementType: ratio of MFI, pulsed to unpulsed
observedResult: 138 ratio
//
binder: mAb29814P (antibody, human IgG4 S228P, kappa, V domains shown) VH: QVQLVESGGGVVQPGRSLRLSCVASGFTFSSYGMHWVRQAPGKGLEWVAVIWYVGSNKYYGDSVKGRFTISRDNSKNTLYLQMNSLRAEDTAVYYCARDLIADRPGYYYNGMDVWGQGTTVTVSS VL: EIVMTQSPVTLFVSPGERATLSCRASQSVNTNLAWYQQQPGQAPRLLIHGASTRPTGVPARFSGSGSGTEFTLIISSLQSEDFAVYYCQQYNNWPPWTFGQGTKVEIKR
measurementType: ratio of MFI, pulsed to unpulsed
observedResult: 124 ratio
//
binder: mAb24959N (antibody, human IgG4 S228P, kappa, V domains shown) VH: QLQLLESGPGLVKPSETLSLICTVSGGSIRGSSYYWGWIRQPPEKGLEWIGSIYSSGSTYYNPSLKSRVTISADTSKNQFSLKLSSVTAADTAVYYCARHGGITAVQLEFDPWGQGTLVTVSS VL: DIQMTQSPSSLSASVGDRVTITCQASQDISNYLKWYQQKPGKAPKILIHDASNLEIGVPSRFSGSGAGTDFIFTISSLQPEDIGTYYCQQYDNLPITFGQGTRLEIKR
measurementType: ratio of MFI, pulsed to unpulsed
observedResult: 131 ratio

Lab note: mAb28105P (antibody, human IgG4 S228P, kappa, V domains shown) VH: EVQLVESGGGVVQPGGSLRLSCEASGFIFDDYAMHWVRQAPGKGLEWVSLISGDGDIIYYADSVKGRFTISRDNSKNSLYLQMNSLIIEDTALYYCAKDWVFGVVMTHYWYFGLDVWGQGTTVTVSS VL: DIQMTQSPSSLSASEGDRVTITCRASQSISTYLNWYQQKPGKAPKLLIYGASSLQSGVPSRFSGSGSGTDFTLTISSLQPEDFATYYCQQSYSTPPITFGQGTKVEIKR gave ratio of MFI, pulsed to unpulsed of 126 ratio
